# Target: Serine/threonine-protein kinase 32C (Homo sapiens)
# Sequence (Q86UX6 whole entry): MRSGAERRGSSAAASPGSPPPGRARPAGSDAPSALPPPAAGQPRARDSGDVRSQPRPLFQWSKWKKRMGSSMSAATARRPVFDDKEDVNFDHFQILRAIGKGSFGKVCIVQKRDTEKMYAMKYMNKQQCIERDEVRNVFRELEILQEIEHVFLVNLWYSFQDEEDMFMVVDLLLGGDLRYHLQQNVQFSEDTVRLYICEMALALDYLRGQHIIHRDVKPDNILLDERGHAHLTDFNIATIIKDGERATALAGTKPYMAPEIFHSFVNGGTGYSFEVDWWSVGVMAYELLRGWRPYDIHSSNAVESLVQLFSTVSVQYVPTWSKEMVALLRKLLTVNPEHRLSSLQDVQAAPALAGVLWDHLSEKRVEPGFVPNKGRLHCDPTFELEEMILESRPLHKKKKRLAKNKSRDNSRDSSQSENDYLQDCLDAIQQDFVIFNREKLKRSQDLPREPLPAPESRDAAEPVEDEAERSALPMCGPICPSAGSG
pKd: −log10 of the molar value.
Measured Endpoint: pKd

- CC(C)CN(C(=O)c1cccnc1)c1c2ccccc2c(=O)n2c1[nH]c1ccccc12: ≤ 5.30

---

# Target: Angiopoietin-1 receptor (Homo sapiens, UniProt Q02763)
# Sequence (Q02763 whole entry): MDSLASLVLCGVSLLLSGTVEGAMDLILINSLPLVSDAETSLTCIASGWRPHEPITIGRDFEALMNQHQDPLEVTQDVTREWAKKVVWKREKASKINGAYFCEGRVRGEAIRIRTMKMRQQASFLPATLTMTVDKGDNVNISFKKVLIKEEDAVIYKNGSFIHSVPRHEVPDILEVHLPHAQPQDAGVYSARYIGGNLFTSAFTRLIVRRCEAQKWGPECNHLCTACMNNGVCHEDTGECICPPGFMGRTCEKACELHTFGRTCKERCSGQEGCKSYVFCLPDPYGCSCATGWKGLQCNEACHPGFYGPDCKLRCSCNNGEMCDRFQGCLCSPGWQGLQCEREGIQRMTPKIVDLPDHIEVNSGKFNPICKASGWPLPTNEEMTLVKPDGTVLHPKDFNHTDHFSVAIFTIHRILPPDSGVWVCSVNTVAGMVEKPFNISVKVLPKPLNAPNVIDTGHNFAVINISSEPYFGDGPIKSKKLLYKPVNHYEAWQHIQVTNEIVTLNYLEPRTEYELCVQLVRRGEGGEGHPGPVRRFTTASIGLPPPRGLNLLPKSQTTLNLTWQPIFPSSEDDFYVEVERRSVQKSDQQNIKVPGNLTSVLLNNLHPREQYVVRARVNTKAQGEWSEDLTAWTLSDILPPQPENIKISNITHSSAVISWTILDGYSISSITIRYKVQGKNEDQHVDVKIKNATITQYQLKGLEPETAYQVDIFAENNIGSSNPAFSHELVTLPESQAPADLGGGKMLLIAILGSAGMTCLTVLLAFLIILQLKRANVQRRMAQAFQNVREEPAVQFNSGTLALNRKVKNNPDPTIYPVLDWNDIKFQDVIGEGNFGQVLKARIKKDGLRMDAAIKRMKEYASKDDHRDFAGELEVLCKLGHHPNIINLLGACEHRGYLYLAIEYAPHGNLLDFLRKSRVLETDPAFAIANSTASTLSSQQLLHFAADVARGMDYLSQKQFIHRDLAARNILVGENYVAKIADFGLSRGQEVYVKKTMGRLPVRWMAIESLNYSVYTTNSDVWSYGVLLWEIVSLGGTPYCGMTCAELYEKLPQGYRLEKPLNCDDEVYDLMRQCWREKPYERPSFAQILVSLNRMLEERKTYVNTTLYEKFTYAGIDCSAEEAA
pKd: −log10 of the molar value.
Measured Endpoint: pKd

- CC(C)CN(C(=O)c1cccnc1)c1c2ccccc2c(=O)n2c1[nH]c1ccccc12: ≤ 5.30

---

# Target: Dual specificity tyrosine-phosphorylation-regulated kinase 1B (Homo sapiens, UniProt Q9Y463)
# Sequence (Q9Y463 whole entry): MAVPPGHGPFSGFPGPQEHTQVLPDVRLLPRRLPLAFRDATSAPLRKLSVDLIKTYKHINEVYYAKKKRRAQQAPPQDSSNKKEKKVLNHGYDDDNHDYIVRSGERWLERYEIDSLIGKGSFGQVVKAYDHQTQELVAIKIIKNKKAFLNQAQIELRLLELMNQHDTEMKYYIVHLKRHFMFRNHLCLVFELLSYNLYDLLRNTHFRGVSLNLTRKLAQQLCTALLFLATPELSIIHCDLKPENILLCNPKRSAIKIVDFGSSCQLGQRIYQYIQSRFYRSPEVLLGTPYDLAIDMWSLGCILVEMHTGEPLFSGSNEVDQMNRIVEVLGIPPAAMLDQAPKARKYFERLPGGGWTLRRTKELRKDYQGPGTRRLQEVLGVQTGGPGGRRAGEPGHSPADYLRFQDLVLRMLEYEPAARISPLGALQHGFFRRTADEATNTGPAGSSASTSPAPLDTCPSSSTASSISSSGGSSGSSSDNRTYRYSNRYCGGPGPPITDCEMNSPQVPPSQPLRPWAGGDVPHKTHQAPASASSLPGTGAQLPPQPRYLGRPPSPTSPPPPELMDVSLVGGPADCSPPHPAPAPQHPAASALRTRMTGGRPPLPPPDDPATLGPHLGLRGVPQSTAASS
pKd: −log10 of the molar value.
Measured Endpoint: pKd

• CC(C)CN(C(=O)c1cccnc1)c1c2ccccc2c(=O)n2c1[nH]c1ccccc12 = ≤ 5.30

---

# Target: Non-receptor tyrosine-protein kinase TYK2 (Homo sapiens, UniProt P29597)
# Sequence (P29597 whole entry, the tested form may be a part): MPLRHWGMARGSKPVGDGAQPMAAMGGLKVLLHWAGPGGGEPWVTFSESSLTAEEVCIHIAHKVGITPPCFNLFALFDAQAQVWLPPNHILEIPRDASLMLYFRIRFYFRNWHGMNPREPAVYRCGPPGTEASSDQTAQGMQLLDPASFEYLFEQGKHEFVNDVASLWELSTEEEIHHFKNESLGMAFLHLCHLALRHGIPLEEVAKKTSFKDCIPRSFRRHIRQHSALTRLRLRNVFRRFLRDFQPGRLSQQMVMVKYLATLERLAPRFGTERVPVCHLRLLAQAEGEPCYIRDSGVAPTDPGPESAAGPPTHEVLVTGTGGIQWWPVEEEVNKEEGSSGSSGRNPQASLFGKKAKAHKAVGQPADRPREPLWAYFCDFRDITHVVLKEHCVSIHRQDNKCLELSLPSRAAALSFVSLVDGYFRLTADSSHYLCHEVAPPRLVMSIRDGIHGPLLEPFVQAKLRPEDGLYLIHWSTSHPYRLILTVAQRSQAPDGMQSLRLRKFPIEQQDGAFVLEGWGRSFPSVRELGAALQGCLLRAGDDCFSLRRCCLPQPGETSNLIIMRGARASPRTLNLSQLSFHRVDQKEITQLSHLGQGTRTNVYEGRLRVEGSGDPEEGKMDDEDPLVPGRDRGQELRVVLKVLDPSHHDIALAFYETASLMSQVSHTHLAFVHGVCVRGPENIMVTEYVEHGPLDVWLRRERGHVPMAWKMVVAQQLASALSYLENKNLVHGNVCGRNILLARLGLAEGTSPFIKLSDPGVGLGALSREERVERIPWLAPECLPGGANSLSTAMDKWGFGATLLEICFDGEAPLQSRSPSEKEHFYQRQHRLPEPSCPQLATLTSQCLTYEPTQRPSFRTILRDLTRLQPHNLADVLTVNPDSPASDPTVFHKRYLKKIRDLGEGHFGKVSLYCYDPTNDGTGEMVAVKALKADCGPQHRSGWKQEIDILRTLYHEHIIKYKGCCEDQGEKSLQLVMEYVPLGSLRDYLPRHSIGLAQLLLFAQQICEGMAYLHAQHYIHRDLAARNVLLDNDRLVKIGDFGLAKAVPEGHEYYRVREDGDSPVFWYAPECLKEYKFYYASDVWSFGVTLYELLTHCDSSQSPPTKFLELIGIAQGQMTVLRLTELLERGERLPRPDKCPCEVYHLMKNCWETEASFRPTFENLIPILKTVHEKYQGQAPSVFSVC
# Assay Protocol: Binding affinity to human TYK2 JH1 catalytic domain (V877 to C1187 residues) expressed in mammalian expression system by KINOMEscan assay
Measured Endpoint: Kd

* CC(C)CN(C(=O)c1cccnc1)c1c2ccccc2c(=O)n2c1[nH]c1ccccc12 | ≥ 5 µM

---

# Target: MAP/microtubule affinity-regulating kinase 3 (Homo sapiens, UniProt P27448)
Measured Endpoint: Kd

* CC(C)CN(C(=O)c1cccnc1)c1c2ccccc2c(=O)n2c1[nH]c1ccccc12 | ≥ 5 µM

---

# Test system: SW-620
# Assay Protocol: Growth inhibition of human SW620 cells by MTT assay
# Format: functional
# reported GI50; entries follow
Measured Endpoint: GI50 (µM)

* O=C(c1cccnc1)N(c1ccccc1Br)c1c2ccccc2c(=O)n2c1[nH]c1ccccc12 | 57.9
* O=C(c1ccccc1)N(Cc1ccccc1)c1c2ccccc2c(=O)n2c1[nH]c1ccccc12 | 69.7
* CC(C)CN(C(=O)c1ccccc1C(=O)O)c1c2ccccc2c(=O)n2c1[nH]c1ccccc12 | 52.7
* CC(C)CN(C(=O)c1cccnc1)c1c2ccccc2c(=O)n2c1[nH]c1ccccc12 | 23.8
* CC(C)CN(C(=O)c1ccco1)c1c2ccccc2c(=O)n2c1[nH]c1ccccc12 | 53.5
* O=C(c1ccncc1)N(CCc1ccccc1)c1c2ccccc2c(=O)n2c1[nH]c1ccccc12 | 48.9
* CC(C)CN(C(=O)c1cccs1)c1c2ccccc2c(=O)n2c1[nH]c1ccccc12 | 44.1
* O=C(c1cccs1)N(c1c2ccccc2c(=O)n2c1[nH]c1ccccc12)C1CC1 | 47.6

---

# Target: UniProt P00519
# Assay Protocol: Binding affinity to human non-phosphorylated ABL1 (S229 to K512 residues) expressed in mammalian expression system by KINOMEscan assay
pKd: −log10 of the molar value.
Measured Endpoint: pKd

• CC(C)CN(C(=O)c1cccnc1)c1c2ccccc2c(=O)n2c1[nH]c1ccccc12 = ≤ 5.30

---

# Target: Mast/stem cell growth factor receptor Kit (Homo sapiens)
# Sequence (P10721 whole entry, the tested form may be a part): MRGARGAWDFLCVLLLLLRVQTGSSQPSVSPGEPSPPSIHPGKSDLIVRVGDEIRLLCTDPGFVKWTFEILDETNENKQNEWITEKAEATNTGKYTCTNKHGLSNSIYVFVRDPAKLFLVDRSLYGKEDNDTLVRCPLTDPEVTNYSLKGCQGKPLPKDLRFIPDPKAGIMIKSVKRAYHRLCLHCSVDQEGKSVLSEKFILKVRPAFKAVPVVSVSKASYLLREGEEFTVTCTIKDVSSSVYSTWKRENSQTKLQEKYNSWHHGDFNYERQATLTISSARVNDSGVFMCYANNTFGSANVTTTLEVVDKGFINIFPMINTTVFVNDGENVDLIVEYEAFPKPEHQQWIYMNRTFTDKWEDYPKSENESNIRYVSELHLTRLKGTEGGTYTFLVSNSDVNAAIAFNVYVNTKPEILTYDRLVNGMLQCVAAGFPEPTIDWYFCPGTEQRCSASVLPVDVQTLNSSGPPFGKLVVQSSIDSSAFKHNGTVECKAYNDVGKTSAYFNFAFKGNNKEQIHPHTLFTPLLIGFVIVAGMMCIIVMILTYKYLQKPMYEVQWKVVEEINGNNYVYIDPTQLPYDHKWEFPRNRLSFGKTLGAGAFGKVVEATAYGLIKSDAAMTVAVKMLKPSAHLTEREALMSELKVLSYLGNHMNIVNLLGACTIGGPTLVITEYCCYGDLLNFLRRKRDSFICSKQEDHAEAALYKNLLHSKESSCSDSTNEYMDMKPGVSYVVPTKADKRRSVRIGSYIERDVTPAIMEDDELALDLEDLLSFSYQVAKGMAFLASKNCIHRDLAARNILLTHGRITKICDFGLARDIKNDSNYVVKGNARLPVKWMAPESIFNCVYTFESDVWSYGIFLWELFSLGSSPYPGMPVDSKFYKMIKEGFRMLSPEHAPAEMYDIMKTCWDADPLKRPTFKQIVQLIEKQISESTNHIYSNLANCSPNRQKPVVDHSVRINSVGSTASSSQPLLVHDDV
# Assay Protocol: Binding affinity to human KIT (I571 to D952 residues) expressed in bacterial expression system by KINOMEscan assay
Measured Endpoint: Kd

- CC(C)CN(C(=O)c1cccnc1)c1c2ccccc2c(=O)n2c1[nH]c1ccccc12: ≥ 5 µM

---

# reported GI50; entries follow
# Tested on: SW-620
# Assay Protocol: Growth inhibition of human SW620 cells by MTT assay
# Format: functional
Measured Endpoint: GI50

* O=C(c1ccco1)N(c1ccccc1Br)c1c2ccccc2c(=O)n2c1[nH]c1ccccc12 | 46 to 100 µM
* O=C(c1ccccc1)N(c1ccccc1)c1c2ccccc2c(=O)n2c1[nH]c1ccccc12 | > 100 µM
* CC(=O)N(c1ccccc1Br)c1c2ccccc2c(=O)n2c1[nH]c1ccccc12 | 46.9 to 100 µM
* O=C(Nc1c2ccccc2c(=O)n2c1[nH]c1ccccc12)c1ccccc1 | > 100 µM
